Source of measurements: patent US20260167619A2

For each record, write down the corresponding GI50.
- Assayed Target: BaF3-Del_TM_CS cells (Homo sapiens, UniProt P00533, T790M/C797S, cells depend on it, form not given)
- Sequence (P00533 with tags, fused parts or gaps DEL746-750/T790M/C797S, form open): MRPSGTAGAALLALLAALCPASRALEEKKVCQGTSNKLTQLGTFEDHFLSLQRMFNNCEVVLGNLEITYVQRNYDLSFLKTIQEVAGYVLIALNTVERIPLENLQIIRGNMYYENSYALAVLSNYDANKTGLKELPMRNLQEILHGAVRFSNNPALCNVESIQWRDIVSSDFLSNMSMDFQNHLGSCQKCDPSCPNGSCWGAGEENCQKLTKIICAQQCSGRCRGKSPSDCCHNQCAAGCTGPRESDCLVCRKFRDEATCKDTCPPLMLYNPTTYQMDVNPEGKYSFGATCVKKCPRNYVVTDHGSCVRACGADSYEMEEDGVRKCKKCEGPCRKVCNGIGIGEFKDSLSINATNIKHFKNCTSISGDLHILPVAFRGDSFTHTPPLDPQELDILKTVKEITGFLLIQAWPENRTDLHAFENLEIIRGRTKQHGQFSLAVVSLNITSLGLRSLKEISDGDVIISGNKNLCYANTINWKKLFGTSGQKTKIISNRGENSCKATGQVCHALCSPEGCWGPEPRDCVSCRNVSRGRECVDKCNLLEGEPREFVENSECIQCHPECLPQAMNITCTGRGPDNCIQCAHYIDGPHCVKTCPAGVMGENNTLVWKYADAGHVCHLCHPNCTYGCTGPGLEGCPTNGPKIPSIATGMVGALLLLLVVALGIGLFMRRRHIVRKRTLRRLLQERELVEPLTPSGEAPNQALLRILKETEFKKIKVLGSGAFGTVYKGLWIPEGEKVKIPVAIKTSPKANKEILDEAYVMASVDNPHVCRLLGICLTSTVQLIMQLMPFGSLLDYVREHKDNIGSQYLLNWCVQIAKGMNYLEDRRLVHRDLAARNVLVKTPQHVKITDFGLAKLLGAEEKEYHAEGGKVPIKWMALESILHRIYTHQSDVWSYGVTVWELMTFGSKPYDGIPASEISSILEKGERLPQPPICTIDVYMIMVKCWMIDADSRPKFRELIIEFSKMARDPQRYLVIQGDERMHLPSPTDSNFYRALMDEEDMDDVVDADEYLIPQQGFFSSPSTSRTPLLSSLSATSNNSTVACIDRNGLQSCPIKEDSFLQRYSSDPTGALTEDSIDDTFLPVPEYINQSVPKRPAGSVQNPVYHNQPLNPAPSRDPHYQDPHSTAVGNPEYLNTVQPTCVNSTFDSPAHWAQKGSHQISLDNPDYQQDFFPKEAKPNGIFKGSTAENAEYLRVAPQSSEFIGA
- Assay: Cell antiproliferation assay (CellTiter-Glo), BaF3-Del_TM_CS
- Type: cell-based
- Test Settings: 48 h treatment, read-out: BaF3-Del_TM_CS IC50
Answer in nM, number only, no unit symbol.

Challenge: Bench note: what GI50 did COc1cc(N2CCC(N3CCN(C)CC3)CC2)c(C)cc1Nc1ncc(Cl)c(Nc2cccc3c2N(S(C)(=O)=O)CC3)n1 show?
Response given: 4.54

Challenge: For the compound COc1cc(N2CCC(N(C)C)CC2)c(C)cc1Nc1nc(Nc2cccc3c2N(S(C)(=O)=O)CC3)c2cc[nH]c2n1 , what GI50 is on record?
Response given: 25.6

Challenge: Any idea what its GI50 is? The compound is COc1cc(N2CCC(N3CCN(C)CC3)CC2)c(Cl)cc1Nc1nc(Nc2cccc3c2N(S(C)(=O)=O)CC3)c2cc[nH]c2n1
Response given: 9.58

Challenge: Any idea what GI50 was measured for CN(C)C1CCN(c2ccc(Nc3ncc(Br)c(Nc4cccc5c4N(S(C)(=O)=O)CC5)n3)c3c2OCCO3)CC1 ?
Response given: 18.6
